# method description: Apparent oral clearance in pulmonary tuberculosis patient in first order model
# Assay type: ADME, organism-based
# details: human, in vivo
measure name: CL/F
// unit must come after the numeric part

Recorded CL/F of CO[C@H]1/C=C/O[C@@]2(C)Oc3c(C)c(O)c4c(O)c(c(/C=N/N5CCN(C)CC5)c(O)c4c3C2=O)NC(=O)/C(C)=C\C=C\[C@H](C)[C@H](O)[C@@H](C)[C@@H](O)[C@@H](C)[C@H](OC(C)=O)[C@@H]1C [RIFAMPIN] , please.
323 mL/min

###

# System: Homo sapiens
# method description: AUC (0 to 12 hrs) in kenyan pulmonary tuberculosis patient with body weight <=45 kg at 450 mg/day, po
# Format: ADME, organism-based, Plasma
# Design: time < 12 hr, dose 450 mg/day, route oral
# details: in vivo
measure name: AUC

Recorded AUC of `CO[C@H]1/C=C/O[C@@]2(C)Oc3c(C)c(O)c4c(O)c(c(/C=N/N5CCN(C)CC5)c(O)c4c3C2=O)NC(=O)/C(C)=C\C=C\[C@H](C)[C@H](O)[C@@H](C)[C@@H](O)[C@@H](C)[C@H](OC(C)=O)[C@@H]1C` , please.
23100 ng·h/mL

###

# Test system: Homo sapiens
# method description: AUC (0 to 12 hrs) in kenyan pulmonary tuberculosis patient coinjected with HIV with body weight <=45 kg at 450 mg/day, po
# Format: ADME, organism-based, Plasma
# Set-up: time < 12 hr, dose 450 mg/day, route oral
# details: in vivo
measure name: AUC

Recorded AUC of CO[C@H]1/C=C/O[C@@]2(C)Oc3c(C)c(O)c4c(O)c(c(/C=N/N5CCN(C)CC5)c(O)c4c3C2=O)NC(=O)/C(C)=C\C=C\[C@H](C)[C@H](O)[C@@H](C)[C@@H](O)[C@@H](C)[C@H](OC(C)=O)[C@@H]1C [RIFAMPIN] , please.
19600 ng·h/mL

###

# System: Homo sapiens
# method description: AUC (0 to 10 hrs) in north american pulmonary tuberculosis patient coinjected with HIV with body weight >50 kg at 600 mg/day, po
# Type: ADME, organism-based, Plasma
# Parameters: time < 10 hr, dose 600 mg/day, route oral
# details: in vivo
measure name: AUC
// unit must come after the numeric part

Recorded AUC of `CO[C@H]1/C=C/O[C@@]2(C)Oc3c(C)c(O)c4c(O)c(c(/C=N/N5CCN(C)CC5)c(O)c4c3C2=O)NC(=O)/C(C)=C\C=C\[C@H](C)[C@H](O)[C@@H](C)[C@@H](O)[C@@H](C)[C@H](OC(C)=O)[C@@H]1C` , please.
30100 ng·h/mL

###

# Tested on: Homo sapiens
# method description: AUC (0 to 24 hrs) in indonesian pulmonary tuberculosis patient at 450 mg/day, po
# Type: ADME, organism-based, Plasma
# Design: dose 450 mg/day, time < 24 hr, route oral
# details: in vivo
measure name: AUC (µg·h/mL)
Just the number in µg·h/mL, nothing appended.

Recorded AUC of `CO[C@H]1/C=C/O[C@@]2(C)Oc3c(C)c(O)c4c(O)c(c(/C=N/N5CCN(C)CC5)c(O)c4c3C2=O)NC(=O)/C(C)=C\C=C\[C@H](C)[C@H](O)[C@@H](C)[C@@H](O)[C@@H](C)[C@H](OC(C)=O)[C@@H]1C` , please.
48.5

###

# method description: Apparent volume of distribution in pulmonary tuberculosis patient in first order model
# Assay type: ADME, organism-based
# details: human, in vivo; read-out: Vz
measure name: Vd (L)
Just the number in L, nothing appended.

Recorded Vd of `CO[C@H]1/C=C/O[C@@]2(C)Oc3c(C)c(O)c4c(O)c(c(/C=N/N5CCN(C)CC5)c(O)c4c3C2=O)NC(=O)/C(C)=C\C=C\[C@H](C)[C@H](O)[C@@H](C)[C@@H](O)[C@@H](C)[C@H](OC(C)=O)[C@@H]1C` , please.
52.8

###

# System: Homo sapiens
# method description: AUC (0 to 10 hrs) in north american pulmonary tuberculosis patient coinjected with HIV with body weight <=50 kg at 450 mg/day, po
# Type: ADME, organism-based, Plasma
# Design: time < 10 hr, dose 450 mg/day, route oral
# details: in vivo
measure name: AUC (mg·h/L)
Just the number in mg·h/L, nothing appended.

Recorded AUC of CO[C@H]1/C=C/O[C@@]2(C)Oc3c(C)c(O)c4c(O)c(c(/C=N/N5CCN(C)CC5)c(O)c4c3C2=O)NC(=O)/C(C)=C\C=C\[C@H](C)[C@H](O)[C@@H](C)[C@@H](O)[C@@H](C)[C@H](OC(C)=O)[C@@H]1C [RIFAMPIN] , please.
30.1

###

# method description: Apparent oral clearance in pulmonary tuberculosis patient in first order and lag time model
# Format: ADME, organism-based
# details: human, in vivo
measure name: CL/F
// unit must come after the numeric part

Recorded CL/F of CO[C@H]1/C=C/O[C@@]2(C)Oc3c(C)c(O)c4c(O)c(c(/C=N/N5CCN(C)CC5)c(O)c4c3C2=O)NC(=O)/C(C)=C\C=C\[C@H](C)[C@H](O)[C@@H](C)[C@@H](O)[C@@H](C)[C@H](OC(C)=O)[C@@H]1C [RIFAMPIN] , please.
337 mL/min

###

# Tested on: Homo sapiens
# method description: AUC (0 to 12 hrs) in kenyan pulmonary tuberculosis patient with body weight >45 kg at 600 mg/day, po
# Format: ADME, organism-based, Plasma
# Parameters: dose 600 mg/day, time < 12 hr, route oral
# details: in vivo
measure name: AUC (ng·h/mL)
Just the number in ng·h/mL, nothing appended.

Lookup: AUC / Homo sapiens / `CO[C@H]1/C=C/O[C@@]2(C)Oc3c(C)c(O)c4c(O)c(c(/C=N/N5CCN(C)CC5)c(O)c4c3C2=O)NC(=O)/C(C)=C\C=C\[C@H](C)[C@H](O)[C@@H](C)[C@@H](O)[C@@H](C)[C@H](OC(C)=O)[C@@H]1C`
23100

###

# Test system: Homo sapiens
# method description: AUC (0 to infinity) in indian pulmonary tuberculosis patient coinjected with HIV at 450 mg/day, po
# Format: ADME, organism-based, Plasma
# Design: dose 450 mg/day, time infinity, route oral
# details: in vivo
measure name: AUC (ng·h/mL)
Just the number in ng·h/mL, nothing appended.

Recorded AUC of `CO[C@H]1/C=C/O[C@@]2(C)Oc3c(C)c(O)c4c(O)c(c(/C=N/N5CCN(C)CC5)c(O)c4c3C2=O)NC(=O)/C(C)=C\C=C\[C@H](C)[C@H](O)[C@@H](C)[C@@H](O)[C@@H](C)[C@H](OC(C)=O)[C@@H]1C` , please.
28200

###

# method description: Apparent oral clearance in pulmonary tuberculosis patient in transit compartment model
# Type: ADME, organism-based
# details: human, in vivo
measure name: CL/F (mL/min)
Just the number in mL/min, nothing appended.

Recorded CL/F of CO[C@H]1/C=C/O[C@@]2(C)Oc3c(C)c(O)c4c(O)c(c(/C=N/N5CCN(C)CC5)c(O)c4c3C2=O)NC(=O)/C(C)=C\C=C\[C@H](C)[C@H](O)[C@@H](C)[C@@H](O)[C@@H](C)[C@H](OC(C)=O)[C@@H]1C [RIFAMPIN] , please.
320

###

# method description: Apparent volume of distribution in pulmonary tuberculosis patient in Sequential 0 order and first order model
# Assay type: ADME, organism-based
# details: human, in vivo; read-out: Vz
measure name: Vd (L)
Just the number in L, nothing appended.

Recorded Vd of `CO[C@H]1/C=C/O[C@@]2(C)Oc3c(C)c(O)c4c(O)c(c(/C=N/N5CCN(C)CC5)c(O)c4c3C2=O)NC(=O)/C(C)=C\C=C\[C@H](C)[C@H](O)[C@@H](C)[C@@H](O)[C@@H](C)[C@H](OC(C)=O)[C@@H]1C` , please.
51.5

###

# System: Homo sapiens
# method description: AUC (0 to infinity) in indian pulmonary tuberculosis patient at 450 mg/day, po
# Type: ADME, organism-based, Plasma
# Parameters: dose 450 mg/day, route oral, time infinity
# details: in vivo
measure name: AUC (ng·h/mL)
Just the number in ng·h/mL, nothing appended.

Recorded AUC of `CO[C@H]1/C=C/O[C@@]2(C)Oc3c(C)c(O)c4c(O)c(c(/C=N/N5CCN(C)CC5)c(O)c4c3C2=O)NC(=O)/C(C)=C\C=C\[C@H](C)[C@H](O)[C@@H](C)[C@@H](O)[C@@H](C)[C@H](OC(C)=O)[C@@H]1C` , please.
44600

###

# method description: Apparent volume of distribution in pulmonary tuberculosis patient in first order and lag time model
# Assay type: ADME, organism-based
# details: human, in vivo; read-out: Vz
measure name: Vd (L)
Just the number in L, nothing appended.

Recorded Vd of CO[C@H]1/C=C/O[C@@]2(C)Oc3c(C)c(O)c4c(O)c(c(/C=N/N5CCN(C)CC5)c(O)c4c3C2=O)NC(=O)/C(C)=C\C=C\[C@H](C)[C@H](O)[C@@H](C)[C@@H](O)[C@@H](C)[C@H](OC(C)=O)[C@@H]1C [RIFAMPIN] , please.
53.4
